Assay: viability profiling in RPMI8226 myeloma cells – cell-based, resazurin fluorescence, basal, 24 h, PK04 Diversity Set, profiling panel (AID 1180);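 also: RPMI8826 multiple myeloma cell line at 5000 cells per well; test concentration not given here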
Details: higher = more signal
Entry flag: t if z-score reaches -0.3; f if it does not.

Exercise: Given COc1ccc(C(O)C2C=CC3C(=O)N(C)C(=O)C3N2N(c2ccccc2)c2ccccc2)cc1 (stereo not given) , state whether its z-score is at least -0.3.
Solution: f

Exercise: Given CC(C)(C)N1CC=CC23O[C@@H]4C=CCOC(=O)[C@@H]4[C@H]2C(=O)N(CCO)[C@@H]3C1=O (stereo not given in full) , state whether its z-score is at least -0.3.
Solution: t

Exercise: Given C=C(COC)/C(=C/C[C@H](OC(C)=O)c1ccccc1OCCO)c1cc(C(=O)OC)ccc1OC , state whether its z-score is at least -0.3.
Solution: f

Exercise: Given COCCCN1C(=O)[C@@]2(c3ccc([N+](=O)[O-])cc3)CC(=O)N(CC34CC5CC(CC(C5)C3)C4)[C@@H]2c2ccc(CO)cc21 , state whether its z-score is at least -0.3.
Solution: f

Exercise: Given COC(=O)[C@@]1(Cc2ccc(F)cc2)[C@H]2c3cc(C(=O)N4CCCC4)n(CCc4ccccn4)c3C[C@H]2CN1C(=O)c1ccccc1 , state whether its z-score is at least -0.3.
Solution: t

Exercise: Given O=C1C2C=CC(C(O)c3c(F)cccc3Cl)N(Nc3ccc([N+](=O)[O-])cc3)C2C(=O)N1c1ccccc1 (stereo not given) , state whether its z-score is at least -0.3.
Solution: t

Exercise: Given COC(=O)[C@]1(CCC(=O)OC(C)(C)C)N=C(c2ccc(OCCCO)cc2)O[C@@H]1c1ccccc1N=[N+]=[N-] , state whether its z-score is at least -0.3.
Solution: f

Exercise: Given CC(C)C(=C=CC[C@H](O)c1ccccc1OCCO)C[C@H](O)c1cc(Cl)cc(Cl)c1O , state whether its z-score is at least -0.3.
Solution: f

Exercise: Given COc1ccc(C#Cc2ccc3c(c2)[C@]2(C(=O)N3)[C@H](C(=O)O)[C@H]3C(=O)O[C@H](c4ccccc4)[C@H](c4ccccc4)N3[C@@H]2c2ccccc2OCCO)cc1 , state whether its z-score is at least -0.3.
Solution: f

Exercise: Given O=C1C[C@]2(c3ccc([N+](=O)[O-])cc3)C(=O)N(C3CC3)c3cc(CO)ccc3[C@H]2N1C1CCCCC1 , state whether its z-score is at least -0.3.
Solution: f

Exercise: Given O=C(NCc1ccc(F)cc1)[C@H]1C[C@H]2C(=O)N3CCC[C@H]3C(=O)N2[C@H]1c1ccc(O)cc1 , state whether its z-score is at least -0.3.
Solution: t

Exercise: Given CCCCCC1=C2CNC(CC(C)C)(C(=O)OC)C=C2C(C)C1=O (stereo not given) , state whether its z-score is at least -0.3.
Solution: f

Exercise: Given CCCCCC1=C2CNC(Cc3ccccc3)(C(=O)OC)C=C2C(C)C1=O (stereo not given) , state whether its z-score is at least -0.3.
Solution: f

Exercise: Given COc1ccc([Si](C)(C)[C@@H]2[C@@H](CC(=O)N(CCO)Cc3ccccc3)O[C@]3(C(=O)N(Cc4ccc(I)cc4)c4ccccc43)[C@H]2C)cc1 , state whether its z-score is at least -0.3.
Solution: f

Exercise: Given CC(C)(C)OC(=O)CC[C@@]1(C(=O)NCCN2CCOCC2)N=C(c2ccc(OCCCO)cc2)O[C@@H]1c1ccccc1CN=[N+]=[N-] , state whether its z-score is at least -0.3.
Solution: t
